System: extensively drug-resistant A. baumannii clinical isolates (planktonic cell)
Method: microbe, parasite or virus in culture
Type: cell-based, Acinetobacter baumannii
Condition set: Acinetobacter baumannii, isolate AB3; planktonic; broth microdilution, CAMHB, 37°C 16–20 h, OD600; read-out: MIC
Readout: MIC (µg/mL)

// known answers, use as guide
- C[C@@H](O)[C@H]1C(=O)N2C(C(=O)O)=C(SCCN=CN)C[C@H]12: 64
- C[C@@H](O)[C@H]1C(=O)N2C(C(=O)O)=C(S[C@@H]3CN[C@H](C(=O)N(C)C)C3)[C@H](C)[C@H]12: 32

(P) O=C(N[C@H](CO)[C@H](O)c1ccc([N+](=O)[O-])cc1)C(Cl)Cl
(Q) C[C@H]1COc2c(N3CCN(C)CC3)c(F)cc3c(=O)c(C(=O)O)cn1c23
Ask | Hi, I'm comparing P with Q and wondering which one has the bigger number for MIC. Any idea? Output the label that corresponds to your choice.
Reply | P
(P: 32 µg/mL, Q: 16 µg/mL)

----------
Tested on: extensively drug-resistant A. baumannii clinical isolates (planktonic cell)
Method: microbe, parasite or virus in culture
Type: cell-based, Acinetobacter baumannii
Condition set: Acinetobacter baumannii, isolate AB7; planktonic; broth microdilution, CAMHB, 37°C 16–20 h, OD600; read-out: MIC
Readout: MIC (µg/mL)

* O=C(N[C@H](CO)[C@H](O)c1ccc([N+](=O)[O-])cc1)C(Cl)Cl [Chloramphenicol, chloramphenicol] | 32

(A) C[C@@H](O)[C@H]1C(=O)N2C(C(=O)O)=C(S[C@@H]3CN[C@H](C(=O)N(C)C)C3)[C@H](C)[C@H]12 [Meropenem, meropenem]
(B) CN(C)c1ccc(O)c2c1C[C@H]1C[C@H]3[C@H](N(C)C)C(O)=C(C(N)=O)C(=O)[C@@]3(O)C(O)=C1C2=O [Minocycline, minocycline]
(C) C[C@@H](O)[C@H]1C(=O)N2C(C(=O)O)=C(SCCN=CN)C[C@H]12 [Imipenem, imipenem]
Ask | Form: Sort by [MIC] Order [ ascending ] Record the ranking as a list of labels in the requested order.
Reply | B, A, C

----------
System: extensively drug-resistant A. baumannii clinical isolates (planktonic cell)
Method: microbe, parasite or virus in culture
Format: cell-based, Acinetobacter baumannii
Condition set: Acinetobacter baumannii, isolate AB2; planktonic; broth microdilution, CAMHB, 37°C 16–20 h, OD600; read-out: MIC
Readout: MIC (µg/mL)

• O=C(N[C@H](CO)[C@H](O)c1ccc([N+](=O)[O-])cc1)C(Cl)Cl = 32

(a) C[C@H]1COc2c(N3CCN(C)CC3)c(F)cc3c(=O)c(C(=O)O)cn1c23
(b) C[C@@H](O)[C@H]1C(=O)N2C(C(=O)O)=C(SCCN=CN)C[C@H]12
(c) C[C@@H](O)[C@H]1C(=O)N2C(C(=O)O)=C(S[C@@H]3CN[C@H](C(=O)N(C)C)C3)[C@H](C)[C@H]12
(d) CN(C)c1cc(NC(=O)CNC(C)(C)C)c(O)c2c1C[C@H]1C[C@H]3[C@H](N(C)C)C(O)=C(C(N)=O)C(=O)[C@@]3(O)C(O)=C1C2=O
Ask | List these items ordered by MIC, big to small. Please list the labels according to the requested order.
Reply | b, c, a, d

----------
Tested on: extensively drug-resistant A. baumannii clinical isolates (planktonic cell)
Method: microbe, parasite or virus in culture
Assay type: cell-based, Acinetobacter baumannii
Condition set: isolate AB1; planktonic; broth microdilution, CAMHB, 37°C 16–20 h, OD600
Bridge positions count the residues as written; N and C are the ends. Square brackets hold non-standard residues; d marks the D form. Peptide text beside a SMILES is read from it. * marks the point of attachment. X1 = CC[C@H](C)CCCCC(=O)*; Dab = NCC[C@H](N)C(=O)O
Readout: MIC (µg/mL)
Please respond with the number in µg/mL and leave the unit unwritten.

Worked examples follow.
• CN[C@H](CC(C)C)C(=O)N[C@H]1C(=O)N[C@@H](CC(N)=O)C(=O)N[C@H]2C(=O)N[C@H]3C(=O)N[C@H](C(=O)N[C@H](C(=O)O)c4cc(O)cc(O)c4-c4cc3ccc4O)[C@H](O)c3ccc(c(Cl)c3)Oc3cc2cc(c3O[C@@H]2O[C@H](CO)[C@@H](O)[C@H](O)[C@H]2O[C@H]2C[C@](C)(N)[C@H](O)[C@H](C)O2)Oc2ccc(cc2Cl)[C@H]1O [Vancomycin, vancomycin] = 64
• CC[C@H](C)CCCCC(=O)N[C@@H](CCN)C(=O)N[C@H](C(=O)N[C@@H](CCN)C(=O)N[C@H]1CCNC(=O)[C@H]([C@@H](C)O)NC(=O)[C@H](CCN)NC(=O)[C@H](CCN)NC(=O)[C@H](CC(C)C)NC(=O)[C@@H](Cc2ccccc2)NC(=O)[C@H](CCN)NC1=O)[C@@H](C)O [Polymyxin B, polymyxin B] (X1-[Dab]T[Dab][Dab][Dab][dF]L[Dab][Dab]T; lactam 4-C (inferred); N-terminus assumed) = 2
• CC(C)(O/N=C(\C(=O)N[C@@H]1C(=O)N2C(C(=O)[O-])=C(C[n+]3ccccc3)CS[C@H]12)c1csc(N)n1)C(=O)O [Ceftazidime, ceftazidime] = 256

Moving on to another molecule below.
Ask | Param readout = MIC; param system = extensively drug-resistant A. baumannii clinical isolates (planktonic cell); param query = CO/N=C(\C(=O)N[C@@H]1C(=O)N2C(C(=O)O)=C(COC(C)=O)CS[C@H]12)c1csc(N)n1 [Cefotaxime, cefotaxime] ; response: value
Reply | 256

----------
System: extensively drug-resistant A. baumannii clinical isolates (planktonic cell)
Method: microbe, parasite or virus in culture
Type: cell-based, Acinetobacter baumannii
Condition set: Acinetobacter baumannii, isolate AB7; planktonic; broth microdilution, CAMHB, 37°C 16–20 h, OD600; read-out: MIC
Readout: MIC (µg/mL)

(A) CN(C)c1cc(NC(=O)CNC(C)(C)C)c(O)c2c1C[C@H]1C[C@H]3[C@H](N(C)C)C(O)=C(C(N)=O)C(=O)[C@@]3(O)C(O)=C1C2=O
(B) C[C@H]1COc2c(N3CCN(C)CC3)c(F)cc3c(=O)c(C(=O)O)cn1c23
Ask | Of the two listed items, which has the higher MIC? First: A Second: B Output the label that corresponds to your choice.
Reply | B
(B: 8 µg/mL, A: 1 µg/mL)

----------
# MIC values compiled below
System: extensively drug-resistant A. baumannii clinical isolates (planktonic cell)
Method: microbe, parasite or virus in culture
Assay type: cell-based, Acinetobacter baumannii
Condition set: Acinetobacter baumannii, isolate AB2; planktonic; broth microdilution, CAMHB, 37°C 16–20 h, OD600; read-out: MIC

See these solved cases before continuing.
* CN(C)[C@@H]1C(O)=C(C(N)=O)C(=O)[C@@]2(O)C(O)=C3C(=O)c4c(O)cccc4[C@@](C)(O)[C@H]3C[C@@H]12 [Tetracycline, tetracycline] | > 1020 µg/mL
* CN(C)c1ccc(O)c2c1C[C@H]1C[C@H]3[C@H](N(C)C)C(O)=C(C(N)=O)C(=O)[C@@]3(O)C(O)=C1C2=O [Minocycline, minocycline] | 16 µg/mL

Would you kindly look at the next entry?
Ask | Field request: MIC | item: NCC[C@H](O)C(=O)N[C@@H]1C[C@H](N)[C@@H](O[C@H]2O[C@H](CN)[C@@H](O)[C@H](O)[C@H]2O)[C@H](O)[C@H]1O[C@H]1O[C@H](CO)[C@@H](O)[C@H](N)[C@H]1O [Amikacin, amikacin]
Reply | > 1020 µg/mL

----------
Tested on: extensively drug-resistant A. baumannii clinical isolates (planktonic cell)
Method: microbe, parasite or virus in culture
Assay type: cell-based, Acinetobacter baumannii
Condition set: Acinetobacter baumannii, isolate AB3; planktonic; broth microdilution, CAMHB, 37°C 16–20 h, OD600; read-out: MIC
Readout: MIC (µg/mL)

(I) CN(C)c1ccc(O)c2c1C[C@H]1C[C@H]3[C@H](N(C)C)C(O)=C(C(N)=O)C(=O)[C@@]3(O)C(O)=C1C2=O
(II) CN(C)c1cc(NC(=O)CNC(C)(C)C)c(O)c2c1C[C@H]1C[C@H]3[C@H](N(C)C)C(O)=C(C(N)=O)C(=O)[C@@]3(O)C(O)=C1C2=O
Ask | Hi, I'm comparing two records. Which one has the lower MIC, I or II ? State the label of the item chosen.
Reply | II

----------
Tested on: extensively drug-resistant A. baumannii clinical isolates (planktonic cell)
Method: microbe, parasite or virus in culture
Type: cell-based, Acinetobacter baumannii
Condition set: Acinetobacter baumannii, isolate AB4; planktonic; broth microdilution, CAMHB, 37°C 16–20 h, OD600; read-out: MIC
Readout: MIC (µg/mL)

- O=C(N[C@H](CO)[C@H](O)c1ccc([N+](=O)[O-])cc1)C(Cl)Cl [Chloramphenicol, chloramphenicol]: 32

(P) C[C@@H](O)[C@H]1C(=O)N2C(C(=O)O)=C(SCCN=CN)C[C@H]12 [Imipenem, imipenem]
(Q) C[C@@H](O)[C@H]1C(=O)N2C(C(=O)O)=C(S[C@@H]3CN[C@H](C(=O)N(C)C)C3)[C@H](C)[C@H]12 [Meropenem, meropenem]
(R) CN(C)c1ccc(O)c2c1C[C@H]1C[C@H]3[C@H](N(C)C)C(O)=C(C(N)=O)C(=O)[C@@]3(O)C(O)=C1C2=O [Minocycline, minocycline]
(S) C[C@H]1COc2c(N3CCN(C)CC3)c(F)cc3c(=O)c(C(=O)O)cn1c23 [Levofloxacin, levofloxacin]
(T) CN(C)c1cc(NC(=O)CNC(C)(C)C)c(O)c2c1C[C@H]1C[C@H]3[C@H](N(C)C)C(O)=C(C(N)=O)C(=O)[C@@]3(O)C(O)=C1C2=O [Tigecycline, tigecycline]
Ask | Arrange items by their MIC values in increasing order. Labels, requested order.
Reply | T, S, R, Q, P
